Cited source for all entries: ChEMBL document CHEMBL4138138

- protocol.details: Cytotoxicity against African green monkey Vero cells assessed as reduction in cell viability after 72 hrs by MTS/PMS assay
- Format: cell-based
- measurement.context: chlorocebus sabaeus
Mark true only when CC50 at 72 h stays strictly below 10 µg/mL. Values equal to the cut-off are false.

Solved cases below.
>>> assigned_label("Cc1ccc(CSc2nc(N)c3c4c(sc3n2)CC(C(C)(C)C)CC4)o1 (centres undefined)")
"true"
>>> assigned_label("CC(C)(C)C1CCc2c(sc3nc(SCc4ccc(C(=O)O)cc4)nc(N)c23)C1 (centres undefined)")
"false"
>>> assigned_label("CC(C)(C)C1CCc2c(sc3nc(SCc4cccc([N+](=O)[O-])c4)nc(N)c23)C1 (centres undefined)")
"false"
>>> assigned_label("Cc1ccc(CSc2nc(N)c3c4c(sc3n2)CC(C(C)(C)C)CC4)s1 (centres undefined)")
"false"
>>> assigned_label("CCOC(=O)CSc1nc(N)c2c3c(sc2n1)CC(C(C)(C)C)CC3 (centres undefined)")
"false"
>>> assigned_label("COc1ccc([N+](=O)[O-])cc1CSc1nc(N)c2c3c(sc2n1)CC(C(C)(C)C)CC3 (centres undefined)")
"false"
>>> assigned_label("CC(C)(C)C1CCc2c(sc3nc(SCc4ccc(C(=O)O)cc4[N+](=O)[O-])nc(N)c23)C1 (centres undefined)")
"false"
>>> assigned_label("CC(C)(C)C1CCc2c(sc3nc(SCc4ccnn4C4CCCCO4)nc(N)c23)C1 (centres undefined)")
"true"
>>> assigned_label("Cn1nccc1CSc1nc(N)c2c3c(sc2n1)CC(C(C)(C)C)CC3 (centres undefined)")
"false"
>>> assigned_label("CC(C)(C)C1CCc2c(sc3nc(SCc4cc([N+](=O)[O-])ccc4O)nc(N)c23)C1 (centres undefined)")
"false"

Let us examine a further case.
Does the reported CC50 at 72 h of the following compound sit strictly below 10 µg/mL? CC(C)(C)C1CCc2c(sc3nc(SCc4ccc([N+](=O)[O-])cc4)nc(N)c23)C1 (centres undefined)
false

====

- protocol.details: Selectivity index, ratio of CC50 for African green monkey Vero cells to MIC for Mycobacterium tuberculosis H37Rv
- Type: toxicity
- measurement.context: read-out: Selectivity Index
measured.property: selectivity ratio

The examples below pair each entry with its known result.
>>> result("CC(C)(C)C1CCc2c(sc3nc(SCc4cccc([N+](=O)[O-])c4)nc(N)c23)C1 (stereo not drawn)")
"> 20"
>>> result("Cn1nccc1CSc1nc(N)c2c3c(sc2n1)CC(C(C)(C)C)CC3 (stereo not drawn)")
10

Here is another molecule to look at.
Identify measured selectivity ratio corresponding to CCOC(=O)CSc1nc(N)c2c3c(sc2n1)CC(C(C)(C)C)CC3 (stereo not drawn)
120 to 240

====

- protocol.details: Intrinsic clearance in mouse liver microsomes
- Type: ADME, microsome
- measurement.context: read-out: CLH
# microsomal CLint listing for each entry below

The cases that follow already have their microsomal CLint on record.
>>> result("COc1ccc([N+](=O)[O-])cc1CSc1nc(N)c2c3c(sc2n1)CC(C(C)(C)C)CC3 (centres undefined)")
"7.9 µL/min/mg"
>>> result("CC(C)(C)C1CCc2c(sc3nc(SCc4cccc([N+](=O)[O-])c4)nc(N)c23)C1 (centres undefined)")
"14.6 µL/min/mg"
>>> result("CC(C)(C)C1CCc2c(sc3nc(SCc4ccc5c(c4)OCO5)nc(N)c23)C1 (centres undefined)")
"10.8 µL/min/mg"

Please look at the following compound next.
Quickly give me recorded microsomal CLint for Cc1ccc(CSc2nc(N)c3c4c(sc3n2)CC(C(C)(C)C)CC4)o1 (centres undefined)
35.1 µL/min/mg
